Hey, just so you know, these numbers are from patent US11679107B2.

Test system: Panc 05.04 cells (SF3b K700E mutant)
Assay: Cell proliferation and viability, CellTiter-Glo, 72 hours
Assay type: cell-based
Conditions: PANC0504.1 cells, 72 h; −100% cidal, 0% static, 100% maximal growth
quantity name: CTGlo-ATS Mean MinResponse % 72 h PANC0504.1 (%)
Report as a plain number; the unit % is understood.

Solved cases (3 shown):
compound=C/C(=C\c1cc(F)cc(-n2ccnc2)c1)[C@H]1OC(=O)C[C@H](O)CC[C@H](C)[C@@H](OC(=O)N2CCN(C)CC2)/C=C/[C@@H]1C target_under_test="Panc 05.04 cells (SF3b K700E mutant)" observed_result=−87.159
compound=C/C(=C\c1cccc(N(C)C2COC2)c1)[C@H]1OC(=O)C[C@H](O)CC[C@H](C)[C@@H](OC(=O)N2CCN(C)CC2)/C=C/[C@@H]1C target_under_test="Panc 05.04 cells (SF3b K700E mutant)" observed_result=−92.998
compound=C/C(=C\c1cc(F)cc(N2CCOCC2)c1)[C@H]1OC(=O)C[C@H](O)CC[C@H](C)[C@@H](OC(=O)N2CCN(C3CCC3)CC2)/C=C/[C@@H]1C target_under_test="Panc 05.04 cells (SF3b K700E mutant)" observed_result=−88.278

Recorded CTGlo-ATS Mean MinResponse % 72 h PANC0504.1 of C/C(=C\c1cc(F)cc(N2CCOCC2)c1)C1OC(=O)C[C@H](O)CC[C@H](C)[C@@H](OC(=O)N2CCN(C3CCOCC3)CC2)/C=C/[C@@H]1C (some centres unmarked) , please.
−84.494

Recorded CTGlo-ATS Mean MinResponse % 72 h PANC0504.1 of "C/C(=C\c1cc(F)c2cnn(C)c2c1)[C@H]1OC(=O)C[C@H](O)CC[C@H](C)[C@@H](OC(=O)N2CCN(C)CC2)/C=C/[C@@H]1C" , please.
−94.474

Recorded CTGlo-ATS Mean MinResponse % 72 h PANC0504.1 of "C/C(=C\c1cccc2[nH]ncc12)[C@H]1OC(=O)C[C@H](O)CC[C@H](C)[C@@H](OC(=O)N2CCN(C)CC2)/C=C/[C@@H]1C" , please.
−17.631

Recorded CTGlo-ATS Mean MinResponse % 72 h PANC0504.1 of "C/C(=C\c1cc(F)cc(N2CCOCC2)c1)[C@H]1OC(=O)C[C@H](O)CC[C@H](C)[C@@H](OC(=O)N(C)Cc2ccncc2)/C=C/[C@@H]1C" , please.
−87.783

Recorded CTGlo-ATS Mean MinResponse % 72 h PANC0504.1 of "C/C(=C\c1cc(F)cc(N2CCN(C(=O)C3CCCCC3)CC2)c1)[C@H]1OC(=O)C[C@H](O)CC[C@H](C)[C@@H](OC(=O)N2CCN(C)CC2)/C=C/[C@@H]1C" , please.
−82.856

Recorded CTGlo-ATS Mean MinResponse % 72 h PANC0504.1 of "C/C(=C\c1cc(F)cc(N2CCN(CC(=O)c3cnccn3)CC2)c1)[C@H]1OC(=O)C[C@H](O)CC[C@H](C)[C@@H](OC(=O)N2CCN(C)CC2)/C=C/[C@@H]1C" , please.
−90.914

Recorded CTGlo-ATS Mean MinResponse % 72 h PANC0504.1 of "C/C(=C\c1ccc2cn[nH]c2c1)[C@H]1OC(=O)C[C@H](O)CC[C@H](C)[C@@H](OC(=O)N2CCN(C)CC2)/C=C/[C@@H]1C" , please.
−27.423

Recorded CTGlo-ATS Mean MinResponse % 72 h PANC0504.1 of "CC[C@H](O)[C@@H](C)CN1CCN(c2cc(F)cc(/C=C(\C)[C@H]3OC(=O)C[C@H](O)CC[C@H](C)[C@@H](OC(=O)N4CCN(C)CC4)/C=C/[C@@H]3C)c2)CC1" , please.
−68.599
